- Assayed system: Nav 1.7 (Homo sapiens)
- Construct: expressed in transfected cells
- Sequence (Q15858 whole entry): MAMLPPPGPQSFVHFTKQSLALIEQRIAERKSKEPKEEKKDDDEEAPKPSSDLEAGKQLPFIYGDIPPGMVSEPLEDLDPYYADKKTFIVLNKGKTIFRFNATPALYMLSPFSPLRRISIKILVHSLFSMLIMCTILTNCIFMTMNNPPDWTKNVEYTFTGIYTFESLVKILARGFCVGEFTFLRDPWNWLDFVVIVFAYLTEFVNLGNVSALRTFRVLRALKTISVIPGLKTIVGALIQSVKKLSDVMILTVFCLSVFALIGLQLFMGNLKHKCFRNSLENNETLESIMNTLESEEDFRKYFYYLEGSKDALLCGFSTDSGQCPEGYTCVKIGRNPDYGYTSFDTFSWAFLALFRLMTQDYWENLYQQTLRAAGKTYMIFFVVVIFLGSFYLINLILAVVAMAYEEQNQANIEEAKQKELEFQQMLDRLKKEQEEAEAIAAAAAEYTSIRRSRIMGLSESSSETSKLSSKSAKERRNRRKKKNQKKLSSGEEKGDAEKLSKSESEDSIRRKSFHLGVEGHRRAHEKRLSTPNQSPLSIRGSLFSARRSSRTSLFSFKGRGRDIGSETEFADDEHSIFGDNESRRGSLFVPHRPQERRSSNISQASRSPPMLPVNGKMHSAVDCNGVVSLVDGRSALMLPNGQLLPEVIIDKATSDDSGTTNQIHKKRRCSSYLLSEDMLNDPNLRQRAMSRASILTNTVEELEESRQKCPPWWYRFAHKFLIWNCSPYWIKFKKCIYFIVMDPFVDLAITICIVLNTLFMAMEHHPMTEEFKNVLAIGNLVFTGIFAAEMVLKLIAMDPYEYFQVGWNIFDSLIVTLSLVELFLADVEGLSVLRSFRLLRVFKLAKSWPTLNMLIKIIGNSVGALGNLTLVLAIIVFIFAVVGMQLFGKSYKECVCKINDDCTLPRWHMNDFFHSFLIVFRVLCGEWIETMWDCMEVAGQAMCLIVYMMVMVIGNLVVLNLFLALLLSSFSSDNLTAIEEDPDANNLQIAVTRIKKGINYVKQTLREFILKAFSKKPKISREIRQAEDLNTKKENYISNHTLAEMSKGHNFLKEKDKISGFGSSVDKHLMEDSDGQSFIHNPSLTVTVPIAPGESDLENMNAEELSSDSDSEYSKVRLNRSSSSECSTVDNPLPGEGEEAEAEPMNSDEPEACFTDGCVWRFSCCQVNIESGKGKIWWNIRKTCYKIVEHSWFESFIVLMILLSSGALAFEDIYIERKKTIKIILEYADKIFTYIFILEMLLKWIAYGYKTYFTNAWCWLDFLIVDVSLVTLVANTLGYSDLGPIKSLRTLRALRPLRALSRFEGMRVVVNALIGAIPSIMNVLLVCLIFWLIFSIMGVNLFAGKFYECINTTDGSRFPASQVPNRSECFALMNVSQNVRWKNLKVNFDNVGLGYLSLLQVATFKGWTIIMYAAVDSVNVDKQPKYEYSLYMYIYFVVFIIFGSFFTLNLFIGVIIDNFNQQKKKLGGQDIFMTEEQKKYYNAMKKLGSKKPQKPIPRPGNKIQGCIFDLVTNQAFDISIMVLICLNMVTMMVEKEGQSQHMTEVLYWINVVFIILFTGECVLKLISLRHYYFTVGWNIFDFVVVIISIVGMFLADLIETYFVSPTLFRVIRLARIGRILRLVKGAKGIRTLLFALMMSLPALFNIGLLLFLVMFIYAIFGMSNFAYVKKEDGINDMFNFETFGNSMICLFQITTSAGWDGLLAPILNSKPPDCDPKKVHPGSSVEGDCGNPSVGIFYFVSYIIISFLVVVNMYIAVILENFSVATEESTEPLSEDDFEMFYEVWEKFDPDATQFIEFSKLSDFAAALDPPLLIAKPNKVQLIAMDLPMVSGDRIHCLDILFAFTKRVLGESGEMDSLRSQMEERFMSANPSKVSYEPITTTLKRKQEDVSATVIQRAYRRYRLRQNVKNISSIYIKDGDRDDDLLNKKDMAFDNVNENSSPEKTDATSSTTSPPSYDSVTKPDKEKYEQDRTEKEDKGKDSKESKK
- Assay remarks: Whole-cell voltage clamp electrophysiology, automated patch clamp (marker c in Table of Examples)
- Format: cell-based
- Test context: marker c = Automated patch clamp data; read-out: Nav 1.7 activity
pIC50: −log10 of the molar value. Counter-ions that a name gives are not always drawn.
Measured attribute: pIC50

Look over these answered cases.
> print(dat)
                                   compound  measured.attribute  reading
1  CN(c1ccccc1)c1nc(N)nc(-c2noc(-c3ccc(C(N)=O)nc3)n2)n1               pIC50     6.15
2  CN(c1ccccc1)c1nc(N)nc(-c2noc([C@@H]3CCCN3)n2)n1 [Example 438, hydrochloride]               pIC50     5.68
3  CN(c1ccccc1)c1nc(N)nc(-c2noc(-c3ccc4c(c3)CCO4)n2)n1               pIC50     6.97
4  CN(c1ccccc1)c1nc(N)nc(-c2noc(C3CN(CC(F)(F)F)C3)n2)n1               pIC50     5.51
5  CN(c1ccccc1)c1nc(N)nc(-c2noc(-c3cccnc3C(=O)NCC3CC3)n2)n1               pIC50     5.45
6  CN(c1ccccc1)c1nc(N)nc(-c2noc([C@@H]3CCCN3C(=O)OC(C)(C)C)n2)n1               pIC50     5.89

I. CN(c1ccccc1)c1nc(N)nc(-c2noc(-c3ncccc3NC3CCC3)n2)n1
II. CN(c1ccccc1)c1nc(N)nc(-c2noc(-c3ccc4c(c3)COC4)n2)n1
Of I and II , which shows the smaller pIC50 value? Answer by quoting the chosen item's label.
II
